Target: T1, biotinylated Aβ1-40 peptide (biotinylated (N-biotinylated in Example 7))
T1 construct: captured on streptavidin (SA) chip; also called Biotinylated Aβ peptide 1-40; Aβ1-40 on SA chip
T1 sequence (peptide, as listed by the source): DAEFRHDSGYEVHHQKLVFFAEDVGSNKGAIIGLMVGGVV
Assay: SPR, Fab over Aβ1-40 on SA chip; KD=koff/kon
Readout kind: Kd (nM)
One number for each entry, in nM.

9TL variant M20 Fab (Fab, V domains shown, Fab; human IgG2 CH1 and kappa CL) VH: QVQLVQSGAEVKKPGASVKVSCKASGYYTEAYYIHWVRQAPGQGLEWMGRIDPATGNTKYAPRLQDRVTMTRDTSTSTVYMELSSLRSEDTAVYYCASLYSLPVYWGQGTTVTVSS VL: DVVMTQSPLSLPVTLGQPASISCKSSQSLLYSDAKTYLNWFQQRPGQSPRRLIYQISRLDPGVPDRFSGSGSGTDFTLKISRVEAEDVGVYYCLQGTHSPVLFGQGTRLEIKR = 6.29
9TL variant M9 Fab (Fab, V domains shown, Fab; human IgG2 CH1 and kappa CL) VH: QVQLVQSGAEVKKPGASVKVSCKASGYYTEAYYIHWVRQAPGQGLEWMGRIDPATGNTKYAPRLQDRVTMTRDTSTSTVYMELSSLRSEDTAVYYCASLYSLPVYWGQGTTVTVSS VL: DVVMTQSPLSLPVTLGQPASISCKSSQSLLYSDAKTYLNWFQQRPGQSPRRLIYQISRLDPGVPDRFSGSGSGTDFTLKISRVEAEDVGVYYCGQGTHYPVLFGQGTRLEIKR = 24.5

Hi! Can you tell me Kd for each of these binders?
1. 9TL variant M16 Fab (Fab, V domains shown, Fab; human IgG2 CH1 and kappa CL) VH: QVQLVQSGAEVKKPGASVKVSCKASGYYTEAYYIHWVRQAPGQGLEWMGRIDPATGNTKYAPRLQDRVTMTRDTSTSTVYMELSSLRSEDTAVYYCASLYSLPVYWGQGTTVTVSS VL: DVVMTQSPLSLPVTLGQPASISCKSSQSLLYSDAKTYLNWFQQRPGQSPRRLIYQISRLDPGVPDRFSGSGSGTDFTLKISRVEAEDVGVYYCLQGTHAPVLFGQGTRLEIKR
2. 9TL variant M7 Fab (Fab, V domains shown, Fab; human IgG2 CH1 and kappa CL) VH: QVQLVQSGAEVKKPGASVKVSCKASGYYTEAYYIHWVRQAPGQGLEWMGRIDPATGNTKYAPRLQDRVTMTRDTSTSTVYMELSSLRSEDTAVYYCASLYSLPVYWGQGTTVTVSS VL: DVVMTQSPLSLPVTLGQPASISCKSSQSLLYSDAKTYLNWFQQRPGQSPRRLIYQISRLDPGVPDRFSGSGSGTDFTLKISRVEAEDVGVYYCSQGTHYPVLFGQGTRLEIKR
3. 9TL variant M37 Fab (Fab, V domains shown, Fab; human IgG2 CH1 and kappa CL) VH: QVQLVQSGAEVKKPGASVKVSCKASGYYTEAYYIHWVRQAPGQGLEWMGRIDPATGNTKYAPRLQDRVTMTRDTSTSTVYMELSSLRSEDTAVYYCASLYSAPVYWGQGTTVTVSS VL: DVVMTQSPLSLPVTLGQPASISCKSSQSLLYSDAKTYLNWFQQRPGQSPRRLIYQISRLDPGVPDRFSGSGSGTDFTLKISRVEAEDVGVYYCLQGTHYPVLFGQGTRLEIKR

1: 2.2; 2: 18.9; 3: 2.89

Hi! Can you tell me Kd for each of these binders?
1. 9TL variant M13 Fab (Fab, V domains shown, Fab; human IgG2 CH1 and kappa CL) VH: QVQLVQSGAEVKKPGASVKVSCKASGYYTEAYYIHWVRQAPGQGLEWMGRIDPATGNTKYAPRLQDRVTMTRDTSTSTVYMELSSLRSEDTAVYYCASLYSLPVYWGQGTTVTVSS VL: DVVMTQSPLSLPVTLGQPASISCKSSQSLLYSDAKTYLNWFQQRPGQSPRRLIYQISRLDPGVPDRFSGSGSGTDFTLKISRVEAEDVGVYYCLQGSHYPVLFGQGTRLEIKR
2. 9TL variant M51 Fab (Fab, V domains shown, Fab; human IgG2 CH1 and kappa CL) VH: QVQLVQSGAEVKKPGASVKVSCKASGYYTEAYYIHWVRQAPGQGLEWMGRIDPATGNTKYAPRLQDRVTMTRDTSTSTVYMELSSLRSEDTAVYYCASLYSLPVHWGQGTTVTVSS VL: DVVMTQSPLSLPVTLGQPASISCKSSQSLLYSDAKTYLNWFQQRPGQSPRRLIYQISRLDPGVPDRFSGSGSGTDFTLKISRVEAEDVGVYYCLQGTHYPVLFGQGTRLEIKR

1. 1.23
2. 2.7

Hi! Can you tell me Kd for each of these binders?
1. 9TL variant M25 Fab (Fab, V domains shown, Fab; human IgG2 CH1 and kappa CL) VH: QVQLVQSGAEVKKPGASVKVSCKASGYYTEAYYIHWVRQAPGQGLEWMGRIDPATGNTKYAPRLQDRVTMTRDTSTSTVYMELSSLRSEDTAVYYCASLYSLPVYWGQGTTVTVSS VL: DVVMTQSPLSLPVTLGQPASISCKSSQSLLYSDAKTYLNWFQQRPGQSPRRLIYQISRLDPGVPDRFSGSGSGTDFTLKISRVEAEDVGVYYCLQGTHYPTLFGQGTRLEIKR
2. 9TL variant M31 Fab (Fab, V domains shown, Fab; human IgG2 CH1 and kappa CL) VH: QVQLVQSGAEVKKPGASVKVSCKASGYYTEAYYIHWVRQAPGQGLEWMGRIDPATGNTKYAPRLQDRVTMTRDTSTSTVYMELSSLRSEDTAVYYCASVYSLPVYWGQGTTVTVSS VL: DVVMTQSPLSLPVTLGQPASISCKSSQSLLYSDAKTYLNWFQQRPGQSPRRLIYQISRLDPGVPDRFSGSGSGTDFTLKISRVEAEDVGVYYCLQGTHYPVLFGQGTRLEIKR

1: 25.2; 2: 31.4

Return Kd for the following binder: 9TL variant 22-T/I Fab (Fab, V domains shown, Fab; human IgG2 CH1 and kappa CL) VH: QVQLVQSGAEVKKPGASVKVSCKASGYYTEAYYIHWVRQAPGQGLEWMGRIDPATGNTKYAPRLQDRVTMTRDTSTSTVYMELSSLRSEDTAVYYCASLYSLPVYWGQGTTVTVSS VL: DVVMTQSPLSLPVTLGQPASISCKSSQSLLYSDAKTYLNWFQQRPGQSPRRLIYQISRLDPGVPDRFSGSGSGTDFTLKISRVEAEDVGVYYCLQGTHYPVIFGQGTRLEIKR
1.45
